Test system: CAKI-1
Test: NCI tumour cell line growth inhibition, 48 h
The whole screen tested about 55,000 sequences, of which about 3,800 (6.9%) were called active. A selection follows. Potency and affinity values are given separately.
Reported property: GI50

Short answer for [Bis(aminomethyl)ethylmethylsilane]tetrachloroplatinum(IV), CHEMBL2146192 : GI50 was 1.19 µM

[Bis(aminomethyl)dimethylsilane]dichloroplatinum (II), CHEMBL2146201 has a reported GI50 of 12 µM

Quick note, GI50 for cis-Bis[[(trimethylsilyl)methyl]amino]tetrachloroplatinum(IV), CHEMBL2146191 landed at 11.9 µM

GI50 in this record for [Bis(aminomethyl)dimethylsilane]tetrachloroplatinum(IV), CHEMBL2146190 : 4.05 µM

Lab note: measured GI50 of [Bis(aminomethyl)tetramethylenesilane]tetrachloropaltinum(IV), CHEMBL2146189 was 5.92 µM

// field: GI50; key: [Bis(aminomethyl)pentamethylenesilane]tetrachloropaltinum(IV), CHEMBL2146204 ; value = 2.14 µM

GI50 for [Bis(aminomethyl)tetramethylenesilane]dichloropaltinum(II), CHEMBL2146205 is 13.6 µM
